Parameter: pIC50. Scope: all listed entries.
System: HCT 116 cells
test: CellTiter-Glo assay in HCT 116 cells (antiproliferative activity)
Format: cell-based
condition-info: HCT 116 human colon carcinoma cells, 5 days (120 h) incubation, CellTiter-Glo luminescence
pIC50: −log10 of the molar value.

Would you please look over these solved cases?
>  <molecule-smiles>
CC1(C)CC(=O)Nc2cc3nc(-c4cc[nH]n4)[nH]c3cc21

>  <target-or-test-system>
HCT 116 cells

>  <measurement>
5.00 to 7.00

$$$$
>  <molecule-smiles>
CN1C(=O)C(C)(C)c2cc3nc(-c4cc(C(F)(F)F)n[nH]4)[nH]c3cc21

>  <target-or-test-system>
HCT 116 cells

>  <measurement>
6.01

$$$$

Lab note: next compound to report on.
Query: Dear colleague, I am looking for the recorded pIC50 of the following compound: `CCN1C(=O)C(C)(C)c2cc3nc(-c4cc(C)[nH]n4)[nH]c3cc21`
Result: 5.00 to 7.00

FYI, the data here is from patent US7285569B2.
